Target: UniProtKB Q9Y6L6
Sequence (Q9Y6L6 whole entry): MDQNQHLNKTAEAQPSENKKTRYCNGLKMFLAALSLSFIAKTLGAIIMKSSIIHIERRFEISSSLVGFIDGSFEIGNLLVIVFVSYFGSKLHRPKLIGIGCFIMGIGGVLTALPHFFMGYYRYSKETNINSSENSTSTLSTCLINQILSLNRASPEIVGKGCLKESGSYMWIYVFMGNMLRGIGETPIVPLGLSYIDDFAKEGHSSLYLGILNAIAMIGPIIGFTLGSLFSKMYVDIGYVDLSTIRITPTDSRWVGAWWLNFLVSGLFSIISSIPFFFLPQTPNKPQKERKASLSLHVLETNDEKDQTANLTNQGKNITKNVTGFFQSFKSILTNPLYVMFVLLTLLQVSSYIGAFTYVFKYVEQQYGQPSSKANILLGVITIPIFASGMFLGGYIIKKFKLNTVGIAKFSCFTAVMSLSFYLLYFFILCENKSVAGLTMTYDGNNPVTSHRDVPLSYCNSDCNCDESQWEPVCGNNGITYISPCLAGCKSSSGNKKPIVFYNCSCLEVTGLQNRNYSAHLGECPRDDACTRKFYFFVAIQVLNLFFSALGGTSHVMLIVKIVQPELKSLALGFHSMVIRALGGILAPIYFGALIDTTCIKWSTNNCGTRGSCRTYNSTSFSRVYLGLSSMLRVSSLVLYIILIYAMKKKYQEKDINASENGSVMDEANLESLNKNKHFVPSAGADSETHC
Experiment: Transport experiment: uptake of labeled substrates into HEK293 cells transfected with OATP-C
Details: HEK293 cells expressing OATP-C vs mock, labeled substrate, 37° C. (FIG. 3)
measured attribute: into-the-cell transport activity

- C[C@@H]1O[C@@H](O[C@H]2C[C@@H](O)[C@]3(CO)[C@H]4[C@H](O)C[C@]5(C)[C@@H](C6=CC(=O)OC6)CC[C@]5(O)[C@@H]4CC[C@]3(O)C2)[C@H](O)[C@H](O)[C@H]1O: weak transport activity
- CCCCC[C@H](O)/C=C/[C@H]1[C@H](O)CC(=O)[C@@H]1C/C=C\CCCC(=O)O [prostaglandin E2]: weak transport activity
